# target-or-system: human IL-23R (Homo sapiens, UniProt Q5VWK5)
# Sequence (Q5VWK5 22-629): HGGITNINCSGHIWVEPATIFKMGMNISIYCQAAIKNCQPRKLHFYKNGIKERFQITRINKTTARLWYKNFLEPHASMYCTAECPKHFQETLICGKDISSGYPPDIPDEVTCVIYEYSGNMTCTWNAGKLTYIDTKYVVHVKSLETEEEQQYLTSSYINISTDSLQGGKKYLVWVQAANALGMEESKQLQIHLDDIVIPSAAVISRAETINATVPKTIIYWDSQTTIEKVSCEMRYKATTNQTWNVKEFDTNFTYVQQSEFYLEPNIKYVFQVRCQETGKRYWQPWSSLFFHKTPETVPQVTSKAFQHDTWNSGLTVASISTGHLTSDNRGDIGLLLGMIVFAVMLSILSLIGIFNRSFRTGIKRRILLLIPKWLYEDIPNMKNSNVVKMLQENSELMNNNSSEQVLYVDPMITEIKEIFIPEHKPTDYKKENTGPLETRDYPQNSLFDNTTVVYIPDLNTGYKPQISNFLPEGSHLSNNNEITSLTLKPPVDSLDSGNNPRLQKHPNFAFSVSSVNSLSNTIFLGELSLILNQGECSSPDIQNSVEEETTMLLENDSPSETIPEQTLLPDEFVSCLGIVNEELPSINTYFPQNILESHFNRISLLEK
# protocol-summary: biochemical
# cond: read-out: % displacement (hIL-23R NIuc)
# Description: The compound binding affinity for IL-23R was estimated by the ability of compounds to displace a fluorophore-labelled reference compound from the human IL-23R. […] The plate was sealed with light impermeable plate seals, and incubated on an orbital shaker 400 rpm for 2 hours at room temperature. […] The BRET ratio was calculated as the fluorescence from the TAMRA/nanoluc bioluminescence. […]
Where a SMILES comes first, the peptide text is derived from it. Bridges are numbered along the chain shown (N, C = ends). [ ]: non-standard residue; d: D form. The star is where a group is joined. NH(2-(3-pyridyl)ethyl) = c1cncc(CCN*)c1; 2Nal = N[C@@H](Cc1ccc2ccccc2c1)C(=O)O; AEF = NCCOc1ccc(C[C@H](N)C(=O)O)cc1; 3Pal = N[C@@H](Cc1cccnc1)C(=O)O; β3hE = N[C@@H](CCC(=O)O)CC(=O)O; αMeL = CC(C)C[C@](C)(N)C(=O)O; Dab = NCC[C@H](N)C(=O)O
Entries and their Emax values follow.

{"compound": "CC[C@H](C)[C@@H]1NC(=O)[C@@H]2CCCCNC(=O)CC[C@@H](CC(=O)NCCc3cccnc3)NC(=O)[C@](C)(CC(C)C)NC(=O)[C@H](Cc3ccc4ccccc4c3)NC(=O)[C@H](Cc3ccc(OCCN)cc3)NC(=O)[C@H](CCC(=O)N2)NC(=O)[C@H](CCC(N)=O)NC(=O)[C@H](Cc2c[nH]c3ccccc23)NC(=O)[C@H](C(C)C)NC1=O [Compound 65] (KIVWQE[AEF][2Nal][αMeL][β3hE]-{NH(2-(3-pyridyl)ethyl)}; lactam 1-10, N-6)", "scale-unit": "%", "Emax": 99}
{"compound": "COc1ccc(C[C@@H]2NC(=O)[C@@H]3CCC(=O)N[C@@H](CCCCNC(=O)CC[C@@H](C(=O)N[C@@H](CCCCNC(=O)c4cncnc4)C(N)=O)NC(=O)[C@](C)(CC(C)C)NC(=O)[C@H](Cc4ccc5ccccc5c4)NC2=O)C(=O)N[C@@H]([C@@H](C)O)C(=O)N[C@@H](C(C)C)C(=O)N[C@@H](Cc2c[nH]c4ccccc24)C(=O)N[C@@H](CCC(N)=O)C(=O)N3)cc1 [Compound 56]", "scale-unit": "%", "Emax": 98}
{"compound": "CC(C)C[C@]1(C)NC(=O)[C@H](Cc2ccc3ccccc3c2)NC(=O)[C@H](Cc2ccc(OCCN)cc2)NC(=O)[C@@H]2CC(=O)N[C@H](CCCCNC(=O)CC[C@@H](C(=O)N[C@@H](CCN)C(=O)N[C@@H](Cc3cccnc3)C(N)=O)NC1=O)C(=O)N[C@@H]([C@@H](C)O)C(=O)N[C@@H](C(C)C)C(=O)N[C@@H](Cc1c[nH]c3ccccc13)C(=O)N[C@@H](CCC(N)=O)C(=O)N2 [Compound 3] ([dK]TVWQD[AEF][2Nal][αMeL]E[Dab][3Pal]-NH2; lactam 1-10, N-6)", "scale-unit": "%", "Emax": 105}
{"compound": "CNC(=O)[C@H](Cc1cccnc1)NC(=O)[C@H](CCN)NC(=O)[C@@H]1CCC(=O)N[C@H]2CCCCNC(=O)CC[C@H](NC(=O)[C@H](CCC(N)=O)NC(=O)[C@H](Cc3c[nH]c4ccccc34)NC2=O)C(=O)N[C@@H](Cc2ccc(OCCN)cc2)C(=O)N[C@@H](Cc2ccc3ccccc3c2)C(=O)N[C@@](C)(CC(C)C)C(=O)N1 [Compound 102] (KWQE[AEF][2Nal][αMeL]E[Dab][3Pal]-NHMe; lactam 1-4, N-8)", "scale-unit": "%", "Emax": 97}
{"compound": "CC[C@H](C)[C@@H]1NC(=O)[C@@H]2CCCCNC(=O)CC[C@@H](C(=O)N[C@@H](CCN)C(=O)N[C@@H](Cc3cccnc3)C(N)=O)NC(=O)C(C)(C)NC(=O)[C@H](Cc3ccc4ccccc4c3)NC(=O)[C@H](Cc3ccc(C)cc3)NC(=O)[C@H](CCC(=O)N2)NC(=O)[C@H](CCC(N)=O)NC(=O)[C@H](Cc2c[nH]c3ccccc23)NC(=O)[C@H](C(C)C)NC1=O [Compound 17]", "scale-unit": "%", "Emax": 107}
{"compound": "CC[C@H](C)[C@@H]1NC(=O)[C@@H]2CCCCNC(=O)CC[C@@H](C(=O)N[C@@H](CCN)C(=O)N[C@@H](Cc3cccnc3)C(N)=O)NC(=O)[C@](C)(C(C)C)NC(=O)[C@H](Cc3ccc4ccccc4c3)NC(=O)[C@H](Cc3ccc(C)cc3)NC(=O)[C@H](CCC(=O)N2)NC(=O)[C@H](CCC(N)=O)NC(=O)[C@H](Cc2c[nH]c3ccccc23)NC(=O)[C@H](C(C)C)NC1=O [Compound 16]", "scale-unit": "%", "Emax": 101}
{"compound": "CNC(=O)[C@H](Cc1cccnc1)NC(=O)[C@H](CCN)NC(=O)[C@@H]1CCC(=O)N[C@H]2CCNC(=O)CC[C@H](NC(=O)[C@H](CCC(N)=O)NC(=O)[C@H](Cc3c[nH]c4ccccc34)NC(=O)CNC2=O)C(=O)N[C@@H](Cc2ccc(OCCN)cc2)C(=O)N[C@@H](Cc2ccc3ccccc3c2)C(=O)N[C@@](C)(CC(C)C)C(=O)N1 [Compound 105]", "scale-unit": "%", "Emax": 101}
{"compound": "COc1ccc(C[C@@H]2NC(=O)[C@@H]3CCC(=O)N[C@@H](CCCCNC(=O)CC[C@@H](C(=O)N[C@@H](CCCCNC(=O)Cc4ccccn4)C(N)=O)NC(=O)[C@](C)(CC(C)C)NC(=O)[C@H](Cc4ccc5ccccc5c4)NC2=O)C(=O)N[C@@H]([C@@H](C)O)C(=O)N[C@@H](C(C)C)C(=O)N[C@@H](Cc2c[nH]c4ccccc24)C(=O)N[C@@H](CCC(N)=O)C(=O)N3)cc1 [Compound 48]", "scale-unit": "%", "Emax": 101}
{"compound": "CCCCc1ccc(C[C@@H]2NC(=O)[C@@H]3CCC(=O)N[C@@H](CCCCNC(=O)CC[C@@H](C(=O)N[C@@H](CCN)C(=O)N[C@@H](Cc4cccnc4)C(=O)NC)NC(=O)[C@](C)(CC(C)C)NC(=O)[C@H](Cc4ccc5ccccc5c4)NC2=O)C(=O)N[C@@H]([C@@H](C)CC)C(=O)N[C@@H](C(C)C)C(=O)N[C@@H](Cc2c[nH]c4ccccc24)C(=O)N[C@@H](CCC(N)=O)C(=O)N3)cc1 [Compound 33]", "scale-unit": "%", "Emax": 102}
{"compound": "COc1ccc(C[C@@H]2NC(=O)[C@@H]3CCC(=O)N[C@@H](CCCCNC(=O)CC[C@@H](C(=O)N[C@@H](CCCCNC(=O)Cc4cccnc4)C(N)=O)NC(=O)[C@](C)(CC(C)C)NC(=O)[C@H](Cc4ccc5ccccc5c4)NC2=O)C(=O)N[C@@H]([C@@H](C)O)C(=O)N[C@@H](C(C)C)C(=O)N[C@@H](Cc2c[nH]c4ccccc24)C(=O)N[C@@H](CCC(N)=O)C(=O)N3)cc1 [Compound 51]", "scale-unit": "%", "Emax": 102}
